# Test system: T47D
# assayExplanation: cells
# conditionsUsed: Homo sapiens, 72 h
Consider the following compounds; for each one, report its IC50.

Known IC50 results, listed for orientation:
compound: O=C(COc1cccc2c1C(=O)N(C1CCC(=O)NC1=O)C2=O)NCCCCCCOc1ccc(N(CC(F)(F)F)S(=O)(=O)C2CC3OC2C(c2ccc(O)cc2)=C3c2ccc(O)cc2)cc1 (stereo not given)
measuredMetric: IC50
endpointResult: > 30 µM
//
compound: Cc1ncsc1-c1ccc([C@H](C)NC(=O)[C@@H]2C[C@H](O)CN2C(=O)[C@@H](NC(=O)CCCCCOc2ccc(N(CC(F)(F)F)S(=O)(=O)C3CC4OC3C(c3ccc(O)cc3)=C4c3ccc(O)cc3)cc2)C(C)(C)C)cc1 (stereo not given in full)
measuredMetric: IC50
endpointResult: > 50 µM
//
compound: CC/C(=C(\c1ccc(O)cc1)c1ccc(OCCN(C)C)cc1)c1ccccc1
measuredMetric: IC50
endpointResult: 11.6 µM
//
compound: O=C(COc1ccc(C2CCC(=O)NC2=O)cc1)NCCCCCCNC(=O)COc1ccc(N(CC(F)(F)F)S(=O)(=O)C2CC3OC2C(c2ccc(O)cc2)=C3c2ccc(O)cc2)cc1 (stereo not given)
measuredMetric: IC50
endpointResult: > 30 µM

Next compound, IC50 to be filled in.
Entry CCN(c1ccc(OCCCCCCCCC(=O)N[C@H](C(=O)N2C[C@H](O)C[C@H]2C(=O)NCc2ccc(-c3scnc3C)cc2)C(C)(C)C)cc1)S(=O)(=O)C1CC2OC1C(c1ccc(O)cc1)=C2c1ccc(O)cc1 (stereo not given in full) , IC50 reported as > 30 µM

Every entry's value here was drawn from ChEMBL document CHEMBL5338775.
